- measured_on: human CPT1A (Homo sapiens, UniProt P50416)
- Construct: made in house; host or cells: Saccharomyces cerevisiae (pESC-trp) or cultured mammalian cells (pCDNA3.1); mitochondrial extract
- Sequence (P50416 whole entry): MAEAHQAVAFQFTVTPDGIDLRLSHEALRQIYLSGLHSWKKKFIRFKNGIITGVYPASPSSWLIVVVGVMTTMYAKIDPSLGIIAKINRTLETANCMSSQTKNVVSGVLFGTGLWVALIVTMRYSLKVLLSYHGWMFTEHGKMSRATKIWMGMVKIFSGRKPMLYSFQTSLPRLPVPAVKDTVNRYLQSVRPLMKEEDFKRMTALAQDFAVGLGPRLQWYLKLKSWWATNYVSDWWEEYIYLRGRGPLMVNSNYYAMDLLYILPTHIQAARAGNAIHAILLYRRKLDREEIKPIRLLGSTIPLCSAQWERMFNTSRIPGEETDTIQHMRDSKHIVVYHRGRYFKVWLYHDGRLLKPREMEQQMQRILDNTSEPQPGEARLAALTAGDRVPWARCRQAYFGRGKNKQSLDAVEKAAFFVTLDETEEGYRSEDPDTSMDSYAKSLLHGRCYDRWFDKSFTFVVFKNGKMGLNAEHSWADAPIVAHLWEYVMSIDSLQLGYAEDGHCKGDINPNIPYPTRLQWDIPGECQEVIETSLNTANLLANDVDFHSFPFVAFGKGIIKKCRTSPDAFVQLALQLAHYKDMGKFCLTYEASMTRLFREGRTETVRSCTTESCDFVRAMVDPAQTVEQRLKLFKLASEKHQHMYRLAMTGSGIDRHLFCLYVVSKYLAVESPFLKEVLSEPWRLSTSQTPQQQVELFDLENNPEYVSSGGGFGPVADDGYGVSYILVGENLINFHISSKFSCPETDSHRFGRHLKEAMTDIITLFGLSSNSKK
- method_description: Human CPT1A LC/MS assay
- Assay type: biochemical
- condition_notes: human CPT1A LC/MS assay, dose response format
quantity: IC50

Worked examples follow.
smiles_str: CCCCCCCCc1ccc(NS(=O)(=O)N[C@H](CC(=O)[O-])C[N+](C)(C)C)cc1
IC50: ≤ 1 µM

smiles_str: CCCCCCc1ccc(CCc2ccc(C(=O)N[C@H](CC(=O)O)C[N+](C)(C)C)o2)s1
IC50: ≤ 1 µM

smiles_str: CCCCCc1ccc(NC(=O)N[C@H](CC(=O)[O-])C[N+](C)(C)C)cc1
IC50: 10 to 100 µM

Enquiry: Answer with IC50 of CCCCCCCCCCc1ccc(NS(=O)(=O)N[C@H](CC(=O)O)C[N+](C)(C)C)cc1 measured for human CPT1A (Homo sapiens, UniProt P50416).
Return: ≤ 1 µM

Enquiry: Answer with IC50 of C[N+](C)(C)C[C@@H](CC(=O)[O-])NC(=O)c1ccc(Oc2ccccc2)nc1 measured for human CPT1A (Homo sapiens, UniProt P50416).
Return: 100 to 1000 µM
